// data source = ChEMBL document CHEMBL4038289

- ASSAYED SYSTEM: UniProtKB Q06124
- Sequence (Q06124 whole entry): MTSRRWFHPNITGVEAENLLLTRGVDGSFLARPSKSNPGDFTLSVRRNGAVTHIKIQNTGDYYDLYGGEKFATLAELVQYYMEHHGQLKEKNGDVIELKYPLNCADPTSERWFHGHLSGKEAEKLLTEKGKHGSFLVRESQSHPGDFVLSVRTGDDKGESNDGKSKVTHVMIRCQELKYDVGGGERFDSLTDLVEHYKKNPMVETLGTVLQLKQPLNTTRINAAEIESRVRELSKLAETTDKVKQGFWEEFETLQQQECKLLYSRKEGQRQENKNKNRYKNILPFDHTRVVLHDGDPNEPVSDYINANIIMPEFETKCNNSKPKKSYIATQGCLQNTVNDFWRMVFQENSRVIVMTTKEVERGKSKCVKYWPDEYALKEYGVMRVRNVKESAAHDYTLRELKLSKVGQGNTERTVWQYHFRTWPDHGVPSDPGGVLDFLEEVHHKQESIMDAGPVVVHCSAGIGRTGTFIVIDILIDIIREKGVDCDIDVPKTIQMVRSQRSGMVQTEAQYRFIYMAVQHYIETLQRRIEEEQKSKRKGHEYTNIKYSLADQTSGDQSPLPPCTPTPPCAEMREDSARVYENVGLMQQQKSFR
- ASSAY OVERVIEW: Inhibition of recombinant SHP2 (unknown origin) using pNPP as substrate measured after 30 mins
VALUE TYPE: IC50 (nM)
Expressed in nM, but write only the number.

Here is how some compounds turned out for IC50.
{"CHEM SMILES": "CCOS(=O)(=O)/C=C/c1ccc(OCc2ccc(COc3ccc(/C=C/S(=O)(=O)OCC)cc3)c(C(=O)Nc3ccc(Oc4ccc(Br)cc4Cl)cc3)c2)cc1", "MEASURED RESULT": 1050}
{"CHEM SMILES": "CCOS(=O)(=O)/C=C/c1ccc(OCc2ccc(COc3ccc(/C=C/S(=O)(=O)OCC)cc3)c(C(=O)Nc3ccc(Oc4ccc(-c5ccccc5)cc4)cc3)c2)cc1", "MEASURED RESULT": 920}
{"CHEM SMILES": "CCOS(=O)(=O)/C=C/c1ccc(OCc2ccc(COc3ccc(/C=C/S(=O)(=O)OCC)cc3)c(C(=O)Nc3ccc(Oc4ccc(Cl)cc4)cc3)c2)cc1", "MEASURED RESULT": 940}
{"CHEM SMILES": "CCOS(=O)(=O)/C=C/c1ccc(OCc2ccc(COc3ccc(/C=C/S(=O)(=O)OCC)cc3)cc2)cc1", "MEASURED RESULT": 4700}
{"CHEM SMILES": "CCOS(=O)(=O)/C=C/c1ccc(OCc2ccc(COc3ccc(/C=C/S(=O)(=O)OCC)cc3)c(C(=O)Nc3ccc(Oc4ccc(CC)cc4)cc3)c2)cc1", "MEASURED RESULT": 1100}

Let's switch to this compound now.
For the compound shown here, `CCOS(=O)(=O)/C=C/c1ccc(OCc2ccc(COc3ccc(/C=C/S(=O)(=O)OCC)cc3)c(C(=O)Nc3ccc(Oc4cccc(C(F)(F)F)c4)cc3)c2)cc1` , give the reported IC50. 1700

###

Item-by-item account of IC50
- ASSAYED SYSTEM: Tyrosine-protein phosphatase non-receptor type 2 (Homo sapiens, UniProt P17706)
- Sequence (P17706 whole entry): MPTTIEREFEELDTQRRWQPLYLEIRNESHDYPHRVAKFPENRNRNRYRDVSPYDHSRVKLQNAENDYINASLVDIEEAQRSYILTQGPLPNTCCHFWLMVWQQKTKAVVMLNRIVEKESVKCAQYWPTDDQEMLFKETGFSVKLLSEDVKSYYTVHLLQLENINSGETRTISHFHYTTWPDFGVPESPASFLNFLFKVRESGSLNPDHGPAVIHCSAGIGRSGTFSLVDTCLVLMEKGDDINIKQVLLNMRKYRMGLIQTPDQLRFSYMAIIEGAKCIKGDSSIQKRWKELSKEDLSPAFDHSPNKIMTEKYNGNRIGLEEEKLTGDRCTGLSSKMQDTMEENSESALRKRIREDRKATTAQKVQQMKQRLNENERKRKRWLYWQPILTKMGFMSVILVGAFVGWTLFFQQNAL
- ASSAY OVERVIEW: Inhibition of recombinant TCPTP (unknown origin) using pNPP as substrate measured after 30 mins
Expressed in nM, but write only the number.

Here is how some compounds turned out for IC50.
{"CHEM SMILES": "CCOS(=O)(=O)/C=C/c1ccc(OCc2ccc(COc3ccc(/C=C/S(=O)(=O)OCC)cc3)c(C(=O)Nc3ccc(Oc4ccc(Br)cc4Cl)cc3)c2)cc1", "MEASURED RESULT": 1430}
{"CHEM SMILES": "CCOS(=O)(=O)/C=C/c1ccc(OCc2ccc(COc3ccc(/C=C/S(=O)(=O)OCC)cc3)c(C(=O)Nc3ccc(Oc4ccc(-c5ccccc5)cc4)cc3)c2)cc1", "MEASURED RESULT": 1290}
{"CHEM SMILES": "CCOS(=O)(=O)/C=C/c1ccc(OCc2ccc(COc3ccc(/C=C/S(=O)(=O)OCC)cc3)c(C(=O)Nc3ccc(Oc4ccc(Cl)cc4)cc3)c2)cc1", "MEASURED RESULT": 2970}
{"CHEM SMILES": "CCOS(=O)(=O)/C=C/c1ccc(OCc2ccc(COc3ccc(/C=C/S(=O)(=O)OCC)cc3)c(C(=O)Nc3ccc(Oc4cccc(C(F)(F)F)c4)cc3)c2)cc1", "MEASURED RESULT": 1620}

For the compound shown here, `CCOS(=O)(=O)/C=C/c1ccc(OCc2ccc(COc3ccc(/C=C/S(=O)(=O)OCC)cc3)c(C(=O)Nc3ccc(Oc4ccc(CC)cc4)cc3)c2)cc1` , give the reported IC50. 1320

Continue with `CCOS(=O)(=O)/C=C/c1ccc(OCc2ccc(COc3ccc(/C=C/S(=O)(=O)OCC)cc3)cc2)cc1` 3390
